# Test system: LNCaP xenograft
# assay: Biodistribution of 68Ga-labeled compounds in mice bearing LNCaP xenograft
# Type: in vivo
# settings: Testes, 1 h p.i.
Answer each item with its documented Biodistribution, Testes (Avg).
Answer with a number only, understood to be in % ID/g.

Exam item: // map O=C(O)CCCC(NC(=O)NC(COCCNC(=O)C(Cc1c2ccccc2cc2ccccc12)NC(=O)C1CCC(CNC(=O)CN2CCN(CC(=O)O)CCN(CC(=O)O)CCN(CC(=O)O)CC2)CC1)C(=O)O)C(=O)O.[68Ga] (stereo not drawn) [^68Ga-CCZ02011] to recorded Biodistribution, Testes (Avg) (system: LNCaP xenograft)
Marked response: 0.51

Exam item: Another compound: O=C(O)CCC[C@H](OC(=O)N[C@@H](CCCCNC(=O)[C@H](Cc1c2ccccc2cc2ccccc12)NC(=O)[C@H]1CC[C@H](CNC(=O)CCc2ccc(O)c(CN(CCN(CC(=O)O)Cc3cc(CCC(=O)O)ccc3O)CC(=O)O)c2)CC1)C(=O)O)C(=O)O.[68Ga] [^68Ga-AR-113-1]
Marked response: 0.79

Exam item: Also check O=C(O)CCCC(NC(=O)NC(CCCONC(=O)C(Cc1c2ccccc2cc2ccccc12)NC(=O)C1CCC(CNC(=O)CN2CCN(CC(=O)O)CCN(CC(=O)O)CCN(CC(=O)O)CC2)CC1)C(=O)O)C(=O)O.[68Ga] (stereo not drawn) [^68Ga-CCZ02018]
Marked response: 0.22
